- target or system: Plasma kallikrein (Homo sapiens, UniProt P03952)
- Sequence (P03952 20-390 limits assumed): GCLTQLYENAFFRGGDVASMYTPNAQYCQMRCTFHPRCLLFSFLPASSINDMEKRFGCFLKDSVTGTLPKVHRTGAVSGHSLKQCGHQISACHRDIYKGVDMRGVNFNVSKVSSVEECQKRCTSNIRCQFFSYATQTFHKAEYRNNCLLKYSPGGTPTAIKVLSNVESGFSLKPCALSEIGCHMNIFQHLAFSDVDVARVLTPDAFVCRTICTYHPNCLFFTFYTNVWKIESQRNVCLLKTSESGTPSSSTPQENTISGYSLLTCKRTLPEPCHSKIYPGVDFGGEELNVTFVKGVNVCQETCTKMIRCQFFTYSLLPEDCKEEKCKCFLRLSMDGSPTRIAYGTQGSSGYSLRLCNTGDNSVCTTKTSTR
- Sequence (P03952 391-638 limits assumed): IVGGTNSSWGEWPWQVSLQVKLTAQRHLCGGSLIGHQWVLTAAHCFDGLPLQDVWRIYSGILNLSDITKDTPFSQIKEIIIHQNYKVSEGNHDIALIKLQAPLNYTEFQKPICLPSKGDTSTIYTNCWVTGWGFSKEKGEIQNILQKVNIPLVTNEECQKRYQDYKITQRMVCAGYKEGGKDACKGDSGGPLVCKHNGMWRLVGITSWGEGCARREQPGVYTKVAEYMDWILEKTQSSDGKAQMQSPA
- experiment summary: Inhibition of human kallikrein
property label: pKi
Please report pKi as the negative decimal logarithm of the molar concentration, giving only the number.

Recorded results for 2 compounds are shown here.
COc1cc(Cl)cc(C(=O)Nc2ccc(Cl)cn2)c1NC(=O)c1scc(CN(C)C2=NCCO2)c1Cl 7.43
CNCc1csc(C(=O)Nc2c(OC)cc(Cl)cc2C(=O)Nc2ccc(Cl)cn2)c1Cl 6.00

Now look at this one.
Param item = CNc1nccn1Cc1csc(C(=O)Nc2c(OC)cc(Cl)cc2C(=O)Nc2ccc(Cl)cn2)c1Cl ; retrieve measured pKi. 7.35
